Target: T1, recombinant human CFD, His-tagged (human, UniProt P00746 26-253)
T1 construct: also called rhCFD-His
T1 sequence (P00746 26-253 limits assumed): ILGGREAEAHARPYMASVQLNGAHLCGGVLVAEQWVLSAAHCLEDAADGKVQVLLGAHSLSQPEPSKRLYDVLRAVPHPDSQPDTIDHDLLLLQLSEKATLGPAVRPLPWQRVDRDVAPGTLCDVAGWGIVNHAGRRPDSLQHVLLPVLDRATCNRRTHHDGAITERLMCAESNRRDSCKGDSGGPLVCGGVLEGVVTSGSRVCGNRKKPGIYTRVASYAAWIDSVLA
Experiment: SPR MX96
outcomeMeasure: pKd
Here pKd is given on a logarithmic scale as minus log10 of the concentration in mol/L.

# binder, measuredNumber
data = [
    ("KCD030 (antibody, V domains shown) VH: QVQLQQSGAELAKPGASVKMSCKASGYTFTNYWMHWVKQRPGQGLEWIGYINPSIGYTEYNQKFKDKATLTADKSSSTAYMQLSSLTSEDSAVFYCATFIYYAMDYWGQGTSVTVSS VL: DIQMNQSPSSLSASLGDTITITCHASQNINVWLSWYQQKPGNIPKLLIYKASNLHTGVPSRFSGSGSGTGFTLTISSLQPEDIATYYCQQGQSYPYTFGGGTKLEIK", 8.42),
]

// moving on: another record for pKd
For the binder KCD009 (antibody, V domains shown, chimeric) VH: QIQLVQSGPELKKPGETVKISCKASGYIFRNYGMNWVKQGPGKGLKWMGWINTYTGEPTYADDFKGRFAFSLETSASTAYLQISNLKNEDTATYFCVRDGPGFAYWGQGTLVTVSA VL: DVLMTQTPLSLPVSLGDQASISCRSSLIIEHSDGNTYLEWYLQKPGQSPKLLIYKVSNRFSGVPDRFSGSGSGTDFTLKISRVEADDLGVYYCFQGSHVPVTFGAGTNLELK , what pKd is on record?
8.40
